test system: Pichia kudriavzevii; assay: Antifungal activity against Candida krusei after 24 hrs by serial dilution method; format: functional
Bridge positions count the residues as written; N and C are the ends. Square brackets hold non-standard residues; d marks the D form. Peptide text beside a SMILES is read from it. * marks the point of attachment. pTerphenylCO(4''-OnC5H11) = CCCCCOc1ccc(-c2ccc(-c3ccc(C(=O)*)cc3)cc2)cc1; X1 = CCCOc1ccc(-c2ccc(-c3ccc(C(=O)*)cc3)cc2)cc1; Pro(4S-NH2) = N[C@@H]1CN[C@H](C(=O)O)C1; hTyr = N[C@@H](CCc1ccc(O)cc1)C(=O)O; Orn = NCCC[C@H](N)C(=O)O
Measured MIC80 by item
API: value field is a number in µg/mL; no unit string.

CCCCCOc1ccc(-c2ccc(-c3ccc(C(=O)N[C@H]4CCCNC(=O)[C@@H]5C[C@H](N)CN5C(=O)[C@H](CCCCN)NC(=O)[C@H](CCc5ccc(O)cc5)NC(=O)[C@@H]5CCCN5C(=O)[C@H]([C@@H](C)O)NC4=O)cc3)cc2)cc1.Cc1ccc(S(=O)(=O)O)cc1 ({pTerphenylCO(4''-OnC5H11)}-[Orn]TP[hTyr]K[Pro(4S-NH2)]; lactam 1-C)
1

Let us move to another entry and its MIC80.
Q: Dear colleague, I am looking for the recorded MIC80 of the following compound: CCCOc1ccc(-c2ccc(-c3ccc(C(=O)N[C@H]4CCCNC(=O)[C@@H]5C[C@H](N)CN5C(=O)[C@H](CCCN)NC(=O)[C@H](CCc5ccc(O)cc5)NC(=O)[C@@H]5CCCN5C(=O)[C@H]([C@@H](C)O)NC4=O)cc3)cc2)cc1.Cc1ccc(S(=O)(=O)O)cc1 (X1-[Orn]TP[hTyr][Orn][Pro(4S-NH2)]; lactam 1-C)
Result: 0.5
